pIC50: −log10 of the molar value.
Study the reported pIC50 values for Apoptosis regulator Bcl-2 (Homo sapiens) given below; they originate from different publications.

Examples with answers:
* CC(C)(C)c1ccccc1S(=O)(=O)c1ccc(NC(=O)c2cc(S(=O)(=O)NCCc3ccccc3)cc(O)c2O)cc1 | < 6.00
* CCCCc1c(-c2ccc(C(=O)NS(=O)(=O)c3ccc4ccccc4c3)cc2C(=O)N2CCc3ccccc3C2)c(C(=O)OCC)nn1-c1ccc(Oc2cccc(Cl)c2)cc1 | 7.70
* O=C(NS(=O)(=O)c1ccc(NCC2CCOCC2)c([N+](=O)[O-])c1)c1ccc(N2CCC(Cn3c(-c4ccc(Cl)cc4)nc4cccnc43)CC2)cc1Oc1cnc2[nH]ccc2c1 | 7.30 to 8.00
* CCCCN(CCCC)C(=O)c1cc(C)n(-c2ccc(NC(=O)Cc3ccc(F)cc3)cc2C(=O)N2Cc3ccccc3C[C@H]2CO)n1 | 6.57 to 6.61
* CCCCN(CCCC)C(=O)c1cc(C)n(-c2ccc(NC(=O)c3cn4cc(Cl)ccc4n3)cc2C(=O)N2Cc3ccccc3C[C@H]2CO)n1 | 6.31 to 6.38

Entry `CCCCN(CCCC)C(=O)c1cc(C)n(-c2ccc(NC(=O)c3cccnc3Nc3cccc(C(F)(F)F)c3)cc2C(=O)N2Cc3ccccc3C[C@H]2CO)n1` : pIC50 on Apoptosis regulator Bcl-2 (Homo sapiens) = 6.35 to 6.37

---

Study the reported IC50 values for Apoptosis regulator Bcl-2 (Homo sapiens, UniProt P10415) given below; they originate from different publications.

Examples with answers:
• CCCCN(CCCC)C(=O)c1cc(C)n(-c2ccc(NC(=O)C(CC#N)c3ccccc3)cc2C(=O)N2Cc3ccccc3C[C@H]2CO)n1 (stereo partly drawn) = 107 to 111 nM
• CC(c1ccccc1-c1ccc(Cl)cc1)N1CCC(N2CCc3c(nc(C(F)(F)F)nc3NS(=O)(=O)c3ccc(N[C@H](CCN(C)C)CSc4ccccc4Cl)c(S(=O)(=O)C(F)(F)F)c3)C2)CC1 (stereo partly drawn) = 99 nM
• CCCCN(CCCC)C(=O)c1cc(C)n(-c2ccc(NC(=O)C3CC(=O)N(Cc4ccccc4Cl)C3)cc2C(=O)N2Cc3ccccc3C[C@H]2CO)n1 (stereo partly drawn) = 96.4 to 97.6 nM
• CCCCN(CCCC)C(=O)c1cc(C)n(-c2ccc(NC(=O)COc3cc(Cl)c(Cl)cc3Cl)cc2C(=O)N2Cc3ccccc3C[C@H]2CO)n1 = 106 to 108 nM
• CCCCN(CCCC)C(=O)c1cc(C)n(-c2ccc(NC(=O)c3cc(C(C)C)nn3C)cc2C(=O)N2Cc3ccccc3C[C@H]2CO)n1 = 586 to 600 nM

Query `CCCCN(CCCC)C(=O)c1cc(C)n(-c2ccc(NC(=O)c3ccc4c(c3)nnn4C(C)C)cc2C(=O)N2Cc3ccccc3C[C@H]2CO)n1` yields IC50 of 306 to 381 nM

Query `CCCCN(CCCC)C(=O)c1cc(C)n(-c2ccc(NC(=O)c3cc(-c4ccccc4)nn3-c3ccc(F)cc3)cc2C(=O)N2Cc3ccccc3C[C@H]2CO)n1` yields IC50 of 494 to 559 nM

Query `Oc1c(Cc2ccccc2)cc(-c2ccc(CCCc3ccccc3)cc2)c(O)c1O` yields IC50 of > 1000 nM

Query Cn1ncc(Oc2cc(N3CCC(CN4CCCCC4c4ccc(Cl)cc4)CC3)ccc2C(=O)NS(=O)(=O)c2ccc(NCC3CCOCC3)c([N+](=O)[O-])c2)cc1=O (stereo not drawn) yields IC50 of > 50 nM

Query CCCCN(CCCC)C(=O)c1cc(C)n(-c2ccc(NC(=O)C3CC(=O)N(CCc4ccc(OC)c(OC)c4)C3)cc2C(=O)N2Cc3ccccc3C[C@H]2CO)n1 (stereo partly drawn) yields IC50 of 252 to 256 nM

Query `CCCCN(CCCC)C(=O)c1cc(C)n(-c2ccc(NC(=O)CCc3ccccc3)cc2C(=O)N2Cc3ccccc3C[C@H]2CO)n1` yields IC50 of 198 to 260 nM
